Measured log(IA) by item
# target or test system: Muscarinic acetylcholine receptor M1 (Homo sapiens)
# protocol: Intrinsic activity at human muscarinic acetylcholine receptor M1 expressed in flpIn-CHO cells assessed as induction of IP1 accumulation at 10 uM after 1 hr by HTRF assay relative to control
# Format: functional, cell-based
metric: log(IA)

| molecule | experimental result |
| --- | --- |
| CN(C(=O)c1cn(Cc2ccc(-c3cnn(C)c3)cc2)c2cccnc12)C1CCCCC1 | -0.24 |
| Cn1cc(-c2ccc(Cn3cc(C(=O)N[C@H]4CCCC[C@@H]4O)c4ncccc43)cc2)cn1 | 1.36 |
| CCNC(=O)c1cn(Cc2ccc(-c3cnn(C)c3)cc2)c2cccnc12 | 0.56 |
| Cn1cc(-c2ccc(Cn3ccc(C(=O)N[C@H]4CCCC[C@@H]4O)c3)cc2)cn1 | 0.52 |
| O=C(O)c1ccc(Cn2cc(C(=O)N[C@H]3CCCC[C@@H]3O)c3ncccc32)cc1 | 0.46 |

====

# target or test system: Muscarinic acetylcholine receptor M1 (Homo sapiens) (UniProt P11229)
# Sequence (P11229 whole entry): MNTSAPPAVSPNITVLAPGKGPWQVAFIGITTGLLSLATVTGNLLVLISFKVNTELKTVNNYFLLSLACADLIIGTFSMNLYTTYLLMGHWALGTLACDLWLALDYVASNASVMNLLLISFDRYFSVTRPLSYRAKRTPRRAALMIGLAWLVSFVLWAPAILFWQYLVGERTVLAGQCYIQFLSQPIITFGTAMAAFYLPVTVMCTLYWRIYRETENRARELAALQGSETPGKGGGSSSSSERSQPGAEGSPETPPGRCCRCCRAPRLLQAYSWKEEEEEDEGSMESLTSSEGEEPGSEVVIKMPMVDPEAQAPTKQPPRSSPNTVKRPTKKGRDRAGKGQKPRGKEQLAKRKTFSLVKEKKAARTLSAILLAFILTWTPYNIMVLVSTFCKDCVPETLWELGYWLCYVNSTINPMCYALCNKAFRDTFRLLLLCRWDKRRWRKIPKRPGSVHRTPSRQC
# protocol: Intrinsic activity at human muscarinic acetylcholine receptor M1 expressed in flpIn-CHO cells assessed as induction of IP1 accumulation at 10 uM after 1 hr by HTRF assay relative to control
# Assay type: functional, cell-based
The source made the active and inactive calls. No cut-off for these calls is given here.

| molecule | Intrinsic activity |
| --- | --- |
| Cn1cc(-c2ccc(Cn3cc(C(=O)NC4CCOCC4)c4ncccc43)cc2)cn1 | Active |
| CCN(CC)C(=O)c1cn(Cc2ccc(-c3cnn(C)c3)cc2)c2cccnc12 | 0 |
| CN(C(=O)c1cn(Cc2ccc(-c3cnn(C)c3)cc2)c2cccnc12)C1CCCCC1 | 0.57 |
| Cn1cc(-c2ccc(Cn3cc(C(=O)NC4CCNCC4)c4ncccc43)cc2)cn1 | Active |
| Cn1cc(-c2ccc(Cn3nc(C(=O)N[C@H]4CCCC[C@@H]4O)c4ccccc43)cc2)cn1 | Active |
| CCNC(=O)c1cn(Cc2ccc(-c3cnn(C)c3)cc2)c2cccnc12 | 3.63 |
| Cn1cc(-c2ccc(Cn3cc(C(=O)N[C@H]4CC[C@H](O)CC4)c4ncccc43)cc2)cn1 | Active |
| Cn1cc(-c2ccc(Cn3cc(C(=O)Nc4ccccc4O)c4ncccc43)cc2)cn1 | 14% |
| Cn1cc(-c2ccc(Cn3cc(C(=O)NC4CCC(=O)CC4)c4ncccc43)cc2)cn1 | Active |
| CN(C)C(=O)c1cn(Cc2ccc(-c3cnn(C)c3)cc2)c2cccnc12 | inactive |
| Cn1cc(-c2ccc(Cn3cc(C(=O)NC4CCCCC4)c4ncccc43)cc2)cn1 | Active |
| Cn1cc(-c2ccc(Cn3cc(C(=O)N4CCCCC4)c4ncccc43)cc2)cn1 | inactive |
| Cn1cc(-c2ccc(Cn3cc(C(=O)N[C@H]4CCCC[C@@H]4O)c4ncccc43)cc2)cn1 | 22.9 |
| Cn1cc(-c2ccc(Cn3cc(C(=O)N[C@H]4CCOC[C@@H]4O)c4ncccc43)cc2)cn1 | Active |
| Cn1cc(-c2ccc(Cn3cc(C(=O)N[C@H]4CCC[C@@H]4O)c4ncccc43)cc2)cn1 | Active |
| Cn1cc(-c2ccc(Cn3cc(C(=O)N[C@H]4CCCO[C@@H]4O)c4ncccc43)cc2)cn1 | Active |
| O=C(O)c1ccc(Cn2cc(C(=O)N[C@H]3CCCC[C@@H]3O)c3ncccc32)cc1 | 2.88 |
| Cn1cc(-c2ccc(Cn3cc(C(=O)N[C@H]4CCCC[C@@H]4O)c4c(Cl)cccc43)cc2)cn1 | Active |
| Cn1cc(-c2ccc(Cn3cc(C(=O)N4CCNCC4)c4ncccc43)cc2)cn1 | Active |
| Cn1cc(-c2ccc(Cn3cc(C(=O)N4CCCC4)c4ncccc43)cc2)cn1 | inactive |
| Cn1cc(-c2ccc(Cn3ccc(C(=O)N[C@H]4CCCC[C@@H]4O)c3)cc2)cn1 | 3.31 |
| Cn1cc(-c2ccc(Cn3cc(C(=O)N[C@H]4CCCC[C@@H]4O)c4ccccc43)cc2)cn1 | Active |
| Cn1cc(-c2ccc(Cn3cc(C(=O)Nc4ccccc4)c4ncccc43)cc2)cn1 | 73% |
| Cn1cc(-c2ccc(Cn3cc(C(=O)N[C@H]4CCCC[C@@H]4O)c4c(F)cccc43)cc2)cn1 | Active |
